Entry source: the supplement of paper PMC7125110

B1: glmS ribozyme (parent)
chain: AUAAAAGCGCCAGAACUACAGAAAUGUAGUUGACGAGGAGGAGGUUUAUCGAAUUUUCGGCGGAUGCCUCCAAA

variants of: B1; assay: self-cleavage kobs at 2500 uM GlcN6P; higher = faster cleavage; RNA array; conditions: with glucosamine-6-phosphate
This sample holds only a part of the variants without activity.
Note: every record was labeled by where its self-cleavage kobs at 2500 uM GlcN6P sits among range A (below 0.0001 s⁻¹), range B (0.0001 s⁻¹ to below 0.001 s⁻¹), range C (0.001 s⁻¹ or more)

Input G32U U56G G66U ; output its category
range A

Please give the result for G29C U56G too.
range C

Okay, and G35U A39U ?
range A

Further, for A6U C16G A36U G41U G43C ?
range A

Please give the result for G35U G40A G41U U45G A53G too.
range A

// same read-out, input: A6C A12U G41A
range A

Can you handle U47G U57G C61G C67U next?
range B

What do you get for C16A A42G ?
range C

C34U C50U , same question.
range A

Now try G29A G41U A53C C58A .
range A

Similarly, U30A A33U C34A A36C G37C U57G ?
range A

Please give the result for A33C U47C too.
range A

Another variant to look at: A12C U31G A42C U69G
range C

Now this one: G40C U47A G62C
range A

Here is the next variant: U46A C71U
range C

What do you have for U31C A64C U65G ?
range A

Next variant up: C61G G62U
range A

Repeat for the following variant: G41C G44U U54A C68A C71A
range A

Further, for G13A U49C C50U ?
range A

# repeat for A12G A36C U65A
range A
